# Assay Explanation: Plasma clearance in rat at 0.2 mg/kg, iv
# Assay type: ADME, organism-based
Observed Property: clearance (mL/min/kg)

Take a look at these entries with their results.
INSERT INTO measurements (molecule, reading) VALUES
  ('N#Cc1ccc(OCCCN2CCC(C(O)(c3ccccc3)C3CCCC3)CC2)cc1 (centres undefined)', 40),
  ('NS(=O)(=O)c1ccc(OCCCN2CCC(C(O)(c3cccc(F)c3)c3nccs3)CC2)cc1 (centres undefined)', 26);

1. N#Cc1ccc(OCCCN2CCC(C(O)(c3cccc(F)c3)c3nccs3)CC2)cc1 (centres undefined)
2. NS(=O)(=O)c1ccc(OCCCN2CCC(C(O)(c3ccccn3)C3CCCC3)CC2)cc1 (racemic)
*Q* 1 or 2 : whose clearance is greater? Mark your selection by writing its label.
*A* 2

====

# Assay Explanation: Intrinsic clearance in rat liver microsomes
# Assay type: ADME
# Experimental Setup: read-out: CLH
Observed Property: CLint scaled (mL/min/kg)

Take a look at these entries with their results.
INSERT INTO measurements (molecule, observed_property, reading) VALUES
  ('NS(=O)(=O)c1ccc(OCCCN2CCC(C(O)(c3ccccn3)C3CCCC3)CC2)cc1 (racemic)', 'CLint scaled', 271),
  ('NS(=O)(=O)c1ccc(OCCCN2CCC(C(O)(c3cccc(F)c3)c3nccs3)CC2)cc1 (stereo not given)', 'CLint scaled', 206);

A. N#Cc1ccc(OCCCN2CCC(C(O)(c3cccc(F)c3)c3nccs3)CC2)cc1 (stereo not given)
B. N#Cc1ccc(OCCCN2CCC(C(O)(c3nccs3)C3CCCC3)CC2)cc1 (stereo not given)
C. N#Cc1ccc(OCCCN2CCC(C(O)(c3ccccc3)C3CCCC3)CC2)cc1 (stereo not given)
*Q* Order the items by recorded CLint scaled; the first position goes to the largest value. Respond with an ordered listing of the labels, as requested.
*A* C, B, A

====

# Assay Explanation: Half life in rat at 0.2 mg/kg, iv
# Type: ADME, organism-based
# Experimental Setup: in vivo
Observed Property: half-life (h)

INSERT INTO measurements (molecule, unit_of_measure, reading) VALUES
  ('N#Cc1ccc(OCCCN2CCC(C(O)(c3ccccc3)C3CCCC3)CC2)cc1 (centres undefined)', 'h', 1.6);

P. NS(=O)(=O)c1ccc(OCCCN2CCC(C(O)(c3ccccn3)C3CCCC3)CC2)cc1 (racemic)
Q. N#Cc1ccc(OCCCN2CCC(C(O)(c3cccc(F)c3)c3nccs3)CC2)cc1 (centres undefined)
R. NS(=O)(=O)c1ccc(OCCCN2CCC(C(O)(c3cccc(F)c3)c3nccs3)CC2)cc1 (centres undefined)
*Q* Order the items by recorded half-life; the first position goes to the largest value. Respond with an ordered listing of the labels, as requested.
*A* Q, R, P

====

# Assay Explanation: Intrinsic clearance in human liver microsomes
# Type: ADME
# Experimental Setup: read-out: CLH
Observed Property: CLint scaled (mL/min/kg)

INSERT INTO assay_data (molecule, unit_of_measure, reading) VALUES
  ('N#Cc1ccc(OCCCN2CCC(C(O)(c3cccc(F)c3)c3nccs3)CC2)cc1 (stereo not given)', 'mL/min/kg', 69);

a. NS(=O)(=O)c1ccc(OCCCN2CCC(C(O)(c3cccc(F)c3)c3nccs3)CC2)cc1 (stereo not given)
b. NS(=O)(=O)c1ccc(OCCCN2CCC(C(O)(c3ccccn3)C3CCCC3)CC2)cc1 (racemic)
c. N#Cc1ccc(OCCCN2CCC(C(O)(c3ccccc3)C3CCCC3)CC2)cc1 (stereo not given)
d. N#Cc1ccc(OCCCN2CCC(C(O)(c3nccs3)C3CCCC3)CC2)cc1 (stereo not given)
*Q* Would you mind ranking these molecules by ascending CLint scaled? Respond with an ordered listing of the labels, as requested.
*A* b, a, d, c

====

# Assay Explanation: Unbound fraction in rat plasma
# Format: ADME, cell-free
Observed Property: fraction unbound

P. NS(=O)(=O)c1ccc(OCCCN2CCC(C(O)(c3cccc(F)c3)c3nccs3)CC2)cc1 (configuration not stated)
Q. N#Cc1ccc(OCCCN2CCC(C(O)(c3cccc(F)c3)c3nccs3)CC2)cc1 (configuration not stated)
*Q* Please choose the item with the lower fraction unbound value from this pair: P and Q Mark your selection by writing its label.
*A* Q
(Q: 0.108, P: 0.322)

====

# Assay Explanation: Unbound fraction in mouse plasma
# Format: ADME, cell-free
Observed Property: fraction unbound

INSERT INTO results (molecule, reading) VALUES
  ('N#Cc1ccc(OCCCN2CCC(C(O)(c3nccs3)C3CCCC3)CC2)cc1 (centres undefined)', 0.192);

I. NS(=O)(=O)c1ccc(OCCCN2CCC(C(O)(c3ccccn3)C3CCCC3)CC2)cc1 (racemic)
II. N#Cc1ccc(OCCCN2CCC(C(O)(c3ccccc3)C3CCCC3)CC2)cc1 (centres undefined)
III. NS(=O)(=O)c1ccc(OCCCN2CCC(C(O)(c3cccc(F)c3)c3nccs3)CC2)cc1 (centres undefined)
*Q* Would you mind ranking these molecules by ascending fraction unbound? Respond with an ordered listing of the labels, as requested.
*A* II, III, I

====

# Assay Explanation: Volume of distribution at steady state in rat at 0.2 mg/kg, iv
# Format: ADME, organism-based
# Experimental Setup: in vivo, read-out: Vdss
Observed Property: Vd (L/kg)

Take a look at these entries with their results.
INSERT INTO assay_data (compound, unit_of_measure, reading) VALUES
  ('NS(=O)(=O)c1ccc(OCCCN2CCC(C(O)(c3ccccn3)C3CCCC3)CC2)cc1 (racemic)', 'L/kg', 4.3),
  ('N#Cc1ccc(OCCCN2CCC(C(O)(c3ccccc3)C3CCCC3)CC2)cc1 (centres undefined)', 'L/kg', 2.9);

A. N#Cc1ccc(OCCCN2CCC(C(O)(c3cccc(F)c3)c3nccs3)CC2)cc1 (centres undefined)
B. NS(=O)(=O)c1ccc(OCCCN2CCC(C(O)(c3cccc(F)c3)c3nccs3)CC2)cc1 (centres undefined)
*Q* A or B : whose Vd is greater? Mark your selection by writing its label.
*A* A
(A: 7.2 L/kg, B: 4.4 L/kg)

====

# Assayed System: Menin/Histone-lysine N-methyltransferase MLL (Homo sapiens)
# Sequence (O00255 whole entry): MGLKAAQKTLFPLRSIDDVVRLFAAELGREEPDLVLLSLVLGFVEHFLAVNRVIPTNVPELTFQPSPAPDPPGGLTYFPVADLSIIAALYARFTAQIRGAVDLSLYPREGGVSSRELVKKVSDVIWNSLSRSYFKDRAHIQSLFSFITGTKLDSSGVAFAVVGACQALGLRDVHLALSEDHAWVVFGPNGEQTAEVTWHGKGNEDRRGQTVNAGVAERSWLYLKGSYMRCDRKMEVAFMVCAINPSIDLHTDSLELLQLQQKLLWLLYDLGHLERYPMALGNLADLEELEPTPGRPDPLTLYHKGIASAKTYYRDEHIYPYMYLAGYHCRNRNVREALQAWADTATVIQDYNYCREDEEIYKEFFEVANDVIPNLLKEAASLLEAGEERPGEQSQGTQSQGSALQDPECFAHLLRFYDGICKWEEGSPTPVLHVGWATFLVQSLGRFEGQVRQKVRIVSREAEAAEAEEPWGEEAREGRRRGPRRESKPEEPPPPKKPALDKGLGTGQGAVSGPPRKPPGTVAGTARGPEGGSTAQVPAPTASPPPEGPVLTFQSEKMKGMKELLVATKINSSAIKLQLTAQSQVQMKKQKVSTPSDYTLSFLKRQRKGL
# Sequence (Q03164 1-2718 partner limits assumed): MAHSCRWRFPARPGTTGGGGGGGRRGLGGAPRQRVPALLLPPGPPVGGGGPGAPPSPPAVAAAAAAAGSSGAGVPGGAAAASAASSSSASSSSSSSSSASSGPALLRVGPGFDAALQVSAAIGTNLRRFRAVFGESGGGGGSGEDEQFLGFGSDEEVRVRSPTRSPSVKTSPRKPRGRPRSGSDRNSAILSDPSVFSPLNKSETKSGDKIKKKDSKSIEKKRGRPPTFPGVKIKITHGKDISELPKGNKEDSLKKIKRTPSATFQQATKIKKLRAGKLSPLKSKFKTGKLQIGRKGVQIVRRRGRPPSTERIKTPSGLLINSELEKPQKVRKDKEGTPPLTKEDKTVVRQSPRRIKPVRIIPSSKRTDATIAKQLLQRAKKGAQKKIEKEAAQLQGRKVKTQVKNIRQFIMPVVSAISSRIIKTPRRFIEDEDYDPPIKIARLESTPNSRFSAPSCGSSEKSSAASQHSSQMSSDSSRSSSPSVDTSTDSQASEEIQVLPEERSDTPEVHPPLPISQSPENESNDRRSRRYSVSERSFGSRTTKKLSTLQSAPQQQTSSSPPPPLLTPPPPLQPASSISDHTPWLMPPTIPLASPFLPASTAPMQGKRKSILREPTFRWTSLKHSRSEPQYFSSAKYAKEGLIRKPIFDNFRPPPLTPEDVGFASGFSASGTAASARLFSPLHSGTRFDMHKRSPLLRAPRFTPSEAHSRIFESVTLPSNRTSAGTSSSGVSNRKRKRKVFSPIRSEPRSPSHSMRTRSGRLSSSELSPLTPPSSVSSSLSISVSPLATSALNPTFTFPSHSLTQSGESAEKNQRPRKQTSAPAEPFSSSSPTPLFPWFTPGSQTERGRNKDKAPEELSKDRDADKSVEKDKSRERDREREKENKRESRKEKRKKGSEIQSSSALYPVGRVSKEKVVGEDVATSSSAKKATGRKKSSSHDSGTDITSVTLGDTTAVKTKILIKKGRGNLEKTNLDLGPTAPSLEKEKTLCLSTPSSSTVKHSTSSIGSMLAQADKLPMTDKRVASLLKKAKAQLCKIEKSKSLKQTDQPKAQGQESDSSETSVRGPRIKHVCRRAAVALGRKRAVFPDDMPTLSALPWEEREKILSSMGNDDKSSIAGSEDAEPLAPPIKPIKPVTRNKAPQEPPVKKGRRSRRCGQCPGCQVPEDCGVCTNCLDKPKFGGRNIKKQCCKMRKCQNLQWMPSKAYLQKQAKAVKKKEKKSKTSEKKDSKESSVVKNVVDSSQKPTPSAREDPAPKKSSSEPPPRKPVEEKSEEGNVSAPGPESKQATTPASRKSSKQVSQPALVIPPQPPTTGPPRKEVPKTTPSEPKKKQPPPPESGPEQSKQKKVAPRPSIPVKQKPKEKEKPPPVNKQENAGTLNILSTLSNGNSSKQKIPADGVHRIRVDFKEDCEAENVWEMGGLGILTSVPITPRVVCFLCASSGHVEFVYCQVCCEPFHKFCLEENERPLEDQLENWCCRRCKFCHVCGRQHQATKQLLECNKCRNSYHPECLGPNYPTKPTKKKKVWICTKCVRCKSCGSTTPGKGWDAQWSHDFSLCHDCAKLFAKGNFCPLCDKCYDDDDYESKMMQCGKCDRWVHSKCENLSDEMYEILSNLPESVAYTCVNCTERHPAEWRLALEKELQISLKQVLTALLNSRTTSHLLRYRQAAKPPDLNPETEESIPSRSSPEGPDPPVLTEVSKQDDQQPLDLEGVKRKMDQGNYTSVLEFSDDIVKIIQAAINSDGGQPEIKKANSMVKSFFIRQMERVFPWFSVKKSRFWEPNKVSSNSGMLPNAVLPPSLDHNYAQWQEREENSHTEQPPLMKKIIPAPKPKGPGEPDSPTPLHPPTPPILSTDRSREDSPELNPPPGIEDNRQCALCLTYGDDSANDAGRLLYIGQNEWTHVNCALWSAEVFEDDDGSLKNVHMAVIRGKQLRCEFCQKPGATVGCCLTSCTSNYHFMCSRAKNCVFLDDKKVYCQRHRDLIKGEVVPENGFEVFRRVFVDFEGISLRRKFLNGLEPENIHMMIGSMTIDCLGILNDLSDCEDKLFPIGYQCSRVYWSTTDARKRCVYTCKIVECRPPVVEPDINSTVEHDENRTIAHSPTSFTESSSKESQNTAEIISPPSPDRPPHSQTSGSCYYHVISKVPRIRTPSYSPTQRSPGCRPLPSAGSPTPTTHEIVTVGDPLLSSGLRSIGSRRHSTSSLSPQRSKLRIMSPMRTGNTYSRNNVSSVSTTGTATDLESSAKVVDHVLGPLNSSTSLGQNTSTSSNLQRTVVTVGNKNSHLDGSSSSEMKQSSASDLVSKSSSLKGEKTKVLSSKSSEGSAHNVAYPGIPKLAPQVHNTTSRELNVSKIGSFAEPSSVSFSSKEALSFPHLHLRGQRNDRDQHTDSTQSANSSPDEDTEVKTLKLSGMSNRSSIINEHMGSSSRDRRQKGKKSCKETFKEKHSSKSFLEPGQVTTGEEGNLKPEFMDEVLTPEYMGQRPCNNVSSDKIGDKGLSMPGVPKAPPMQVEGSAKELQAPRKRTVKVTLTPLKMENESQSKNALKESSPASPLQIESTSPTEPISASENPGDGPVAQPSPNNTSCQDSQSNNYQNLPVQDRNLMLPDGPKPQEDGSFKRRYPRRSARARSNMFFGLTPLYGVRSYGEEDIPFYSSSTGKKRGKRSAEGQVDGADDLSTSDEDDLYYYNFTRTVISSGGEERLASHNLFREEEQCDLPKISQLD
# Sequence (Q03164 2719-3969 partner limits assumed): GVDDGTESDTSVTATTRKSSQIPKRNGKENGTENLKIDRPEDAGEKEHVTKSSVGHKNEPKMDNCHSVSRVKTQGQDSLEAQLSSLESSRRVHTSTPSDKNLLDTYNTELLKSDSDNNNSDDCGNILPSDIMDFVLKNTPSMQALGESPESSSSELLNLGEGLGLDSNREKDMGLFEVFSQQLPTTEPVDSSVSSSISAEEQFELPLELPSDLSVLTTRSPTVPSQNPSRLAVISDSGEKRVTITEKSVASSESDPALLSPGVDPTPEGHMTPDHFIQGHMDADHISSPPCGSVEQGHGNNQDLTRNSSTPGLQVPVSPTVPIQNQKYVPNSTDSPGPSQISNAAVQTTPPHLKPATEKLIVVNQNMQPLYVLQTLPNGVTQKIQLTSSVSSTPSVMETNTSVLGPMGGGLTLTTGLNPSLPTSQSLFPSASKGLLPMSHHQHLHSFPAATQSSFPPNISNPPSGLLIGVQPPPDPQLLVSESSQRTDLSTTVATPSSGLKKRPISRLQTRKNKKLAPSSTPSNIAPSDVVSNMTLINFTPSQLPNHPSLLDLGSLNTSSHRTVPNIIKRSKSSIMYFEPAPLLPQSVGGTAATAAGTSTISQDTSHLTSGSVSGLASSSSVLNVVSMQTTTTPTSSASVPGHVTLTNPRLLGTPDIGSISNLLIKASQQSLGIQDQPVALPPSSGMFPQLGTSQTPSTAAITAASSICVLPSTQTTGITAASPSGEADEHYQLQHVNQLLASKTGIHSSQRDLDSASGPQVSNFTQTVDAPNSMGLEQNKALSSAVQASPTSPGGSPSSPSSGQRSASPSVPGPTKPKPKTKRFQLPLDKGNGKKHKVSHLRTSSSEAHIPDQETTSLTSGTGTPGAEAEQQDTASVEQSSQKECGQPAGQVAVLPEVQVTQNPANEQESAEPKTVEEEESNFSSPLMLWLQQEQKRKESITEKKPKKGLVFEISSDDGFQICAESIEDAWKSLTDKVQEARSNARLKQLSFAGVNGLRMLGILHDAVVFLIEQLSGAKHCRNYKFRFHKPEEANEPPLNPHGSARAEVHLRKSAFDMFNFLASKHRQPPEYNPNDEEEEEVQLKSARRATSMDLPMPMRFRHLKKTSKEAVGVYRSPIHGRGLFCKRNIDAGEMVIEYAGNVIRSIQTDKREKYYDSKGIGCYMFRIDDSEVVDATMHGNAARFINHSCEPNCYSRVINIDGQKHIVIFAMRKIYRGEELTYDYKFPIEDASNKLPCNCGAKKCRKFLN
# Assay Explanation: Inhibition of menin-MLL1 interaction (unknown origin) incubated for 1 hr by fluorescein and Texas Red labeled MBM1 based fluorescence polarization assay
Observed Property: IC50 (nM)
Reply with just the number (in nM).

*Q* Returns the measured IC50 for the input compound. Input: N#Cc1ccc(OCCCN2CCC(C(O)(c3cccc(F)c3)c3nccs3)CC2)cc1 (stereo unspecified)
*A* 460

Cited source: ChEMBL document CHEMBL3585303
